Origin of measurements: paper PMC9019252

# EXPERIMENTAL TARGET: PABPC1 RRM2/3 (residues 100-289) (human, UniProt P11940 100-289)
# ASSAY COMMENT: ITC
MEASURED PROPERTY: Kd

[[record]]
binder = "Paip2A(25-83) (residues 25-83 of PABP-interacting protein 2A) (domain or fragment, human, UniProt Q9BPZ3 25-83, looked up) HEDDNPFAEYMWMENEEEFNRQIEEELWEEEFIERCFQEMLEEEEEHEWFIPARDLPQT"
measured_property = "Kd"
value_measured = "1.9 nM"

